- SYSTEM UNDER TEST: T1, BMP-6 (UniProt P22004 382-513, limits assumed)
- T1 construct: also called bone morphogenetic protein 6
- T1 sequence (looked up): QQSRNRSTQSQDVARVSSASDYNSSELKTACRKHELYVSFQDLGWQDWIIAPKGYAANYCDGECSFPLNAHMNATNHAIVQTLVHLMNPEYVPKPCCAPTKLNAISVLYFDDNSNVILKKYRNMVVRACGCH
- PROTOCOL DETAILS: plate assay: biotinylated peptide on streptavidin plate, growth factor titrated 0.01-100 nM, antibody/AP detection
Where no end group is shown, it is not given here. [ ]: non-standard residue; d: D form.
Each item that follows carries a reported EC50.

// solved cases for EC50 follow
{"BINDER": "[code s][code s]VAEWALRSWEGMRVGEA[code s][code r] (also: biotinylated, site not given here) [SEQ ID NO 3]", "EC50": "< 10 nM"}
{"BINDER": "SSGGVGGWALFETLRGKEVSR (not fully specified (residues 1, 2, 20, 21); printed as ssGGVGGWALFETLRGKEVsr; also: biotinylated, site not given here) [SEQ ID NO 2]", "EC50": "< 10 nM"}

// next item, EC50 requested
What value of EC50 has been recorded for this entry: [code s][code s]GPREIWDSLVGVVNPGW[code s][code r] (also: biotinylated, site not given here) [SEQ ID NO 1]
< 10 nM

Data origin, for the record: patent US20090098175A1
